ASSAYED_SYSTEM: GTPase KRas (Homo sapiens, UniProt P01116, G12D)
Sequence (P01116 whole entry G12D): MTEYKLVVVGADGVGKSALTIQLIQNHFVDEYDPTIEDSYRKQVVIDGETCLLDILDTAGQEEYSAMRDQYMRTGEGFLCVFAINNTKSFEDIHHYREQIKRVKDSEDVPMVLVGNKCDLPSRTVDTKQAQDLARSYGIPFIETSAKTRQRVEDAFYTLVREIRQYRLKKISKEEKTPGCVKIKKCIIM
ASSAY_COMMENT: Inhibition of recombinant biotinylated KRAS G12D mutant (unknown origin) assessed as inhibition of SOS-catalyzed nucleotide exchange preincubated for 60 mins followed by addition of human SOS protein and unlabeled GTP and measured after 60 mins by TR-FRET analysis
*1 amine or outer side, *2 acyl side, *3 side chain or, on linkers, in order; H or OH if unused. Where a SMILES comes first, the peptide text is derived from it. Bridges are numbered along the chain shown (N, C = ends). [ ]: non-standard residue; d: D form. X2 = O=C([C@@H]1[C@H]2CC[C@H](C2)N1[*:1])[*:2]; Pro(3R-Ph) = O=C(O)[C@H]1NCC[C@@H]1c1ccccc1; Bip = N[C@@H](Cc1ccc(-c2ccccc2)cc1)C(=O)O; Cba = N[C@@H](CC1CCC1)C(=O)O
ASSAY_READOUT: pIC50
Give bare numbers, as −log10 of the molar value.

compound=CC[C@H](C)[C@@H]1NC(=O)[C@H](Cc2ccc(O)cc2)NC(=O)[C@H](CC(C)C)NC(=O)[C@@H]2CCCN2C(=O)[C@@H](NC(=O)[C@H](CCCNC(=N)N)NC(=O)[C@H](CCCNC(=N)N)NC(C)=O)CSSC[C@@H](C(=O)N[C@@H](CCCNC(=N)N)C(=O)N[C@@H](CCCNC(=N)N)C(N)=O)NC(=O)[C@H](C(C)C)NC(=O)[C@@H]2CCCN2C(=O)[C@H](CC(=O)O)NC(=O)[C@H](Cc2cc(F)c(F)c(F)c2)NC(=O)[C@H](CO)NC1=O numeric_readout=6.71

Please give pIC50, item by item, for the list that follows.
1. CC[C@H](C)[C@@H]1NC(=O)[C@H](Cc2ccc(-c3ccccc3)cc2)NC(=O)[C@H](CC(C)C)NC(=O)[C@@H]2[C@H]3CC[C@H](C3)N2C(=O)[C@@H](NC(=O)[C@H](CCCNC(=N)N)NC(=O)[C@H](CCCNC(=N)N)NC(C)=O)CSSC[C@@H](C(=O)N[C@@H](CCCNC(=N)N)C(=O)N[C@@H](CCCNC(=N)N)C(N)=O)NC(=O)[C@H](C(C)C)NC(=O)[C@@H]2CCCN2C(=O)[C@H](CC(=O)O)NC(=O)[C@H](Cc2ccc(O)cc2)NC(=O)[C@H](CO)NC1=O (Ac-RRC[X2]L[Bip]ISYDPVCRR-NH2; disulfide 3-13)
2. CC[C@H](C)[C@@H]1NC(=O)[C@H](Cc2ccc(-c3ccccc3)cc2)NC(=O)[C@H](CC2CCC2)NC(=O)[C@@H]2[C@@H](c3ccccc3)CCN2C(=O)[C@@H](NC(=O)[C@H](CCCNC(=N)N)NC(=O)[C@H](CCCNC(=N)N)NC(C)=O)CSSC[C@@H](C(=O)N[C@@H](CCCNC(=N)N)C(=O)N[C@@H](CCCNC(=N)N)C(N)=O)NC(=O)[C@H](C(C)C)NC(=O)[C@@H]2CCCN2C(=O)[C@H](CC(=O)O)NC(=O)[C@H](Cc2ccc(O)cc2)NC(=O)[C@H](CO)NC1=O (Ac-RRC[Pro(3R-Ph)][Cba][Bip]ISYDPVCRR-NH2; disulfide 3-13)
3. CC[C@H](C)[C@@H]1NC(=O)[C@H](Cc2ccc(-c3ccccc3)cc2)NC(=O)[C@H](CC(C)C)NC(=O)[C@@H]2[C@@H](c3ccccc3)CCN2C(=O)[C@@H](NC(=O)[C@H](CCCNC(=N)N)NC(=O)[C@H](CCCNC(=N)N)NC(C)=O)CSSC[C@@H](C(=O)N[C@@H](CCCNC(=N)N)C(=O)N[C@@H](CCCNC(=N)N)C(N)=O)NC(=O)[C@H](C(C)C)NC(=O)[C@@H]2CCCN2C(=O)[C@H](CC(=O)O)NC(=O)[C@H](Cc2ccc(O)cc2)NC(=O)[C@H](CO)NC1=O (Ac-RRC[Pro(3R-Ph)]L[Bip]ISYDPVCRR-NH2; disulfide 3-13)

1. 6.70
2. 8.15
3. 9.00

Supply measured pIC50 of CC[C@H](C)[C@@H]1NC(=O)[C@H](Cc2ccc(O)cc2)NC(=O)[C@H](CC(C)C)NC(=O)[C@@H]2CCCN2C(=O)[C@@H](NC(=O)[C@H](CCCNC(=N)N)NC(=O)[C@H](CCCNC(=N)N)NC(C)=O)CSSC[C@@H](C(=O)N[C@@H](CCCNC(=N)N)C(=O)N[C@@H](CCCNC(=N)N)C(N)=O)NC(=O)[C@H](C(C)C)NC(=O)[C@@H]2CCCN2C(=O)[C@H](CC(=O)O)NC(=O)[C@H](C(c2ccccc2)c2ccccc2)NC(=O)[C@H](CO)NC1=O in your reply.
6.60

All figures here come from ChEMBL document CHEMBL5131563.
